Reference source for all entries: patent US10407467B2

Test system: Escherichia coli
Assay: MIC, compound in combination with a second agent (broth microdilution)
Type: cell-based
Conditions: 1:1 (wt:wt) combination with Rifampicin; MIC = total drug concentration; strain NCTC9001
Description: To evaluate the potency and spectrum of the compounds both alone and in combination with another agent, susceptibility testing was performed against up to four strains of each of the four Gram negative pathogens, Escherichia coli, Pseudomonas aeruginosa, Klebsiella pneumoniae and Acinetobacter baumannii. Ratios of components in a combination, such as 1:1, refers to a weight to weight ratio. […]
Where a name gives a salt, the structure may show the parent alone. Numbered stars: 1 amine (or outer) side, 2 acyl side, 3 side chain; on linkers, the order of the positions; unused ones are H or OH. Bridge positions count the residues as written; N and C are the ends. Square brackets hold non-standard residues; d marks the D form. Peptide text beside a SMILES is read from it. * marks the point of attachment. ξ: configuration not given here. Achc(trans-4) = O=C([C@H]1CC[C@H](N[*:1])CC1)[*:2]; Thr(3ξ) = CC(O)[C@H](N)C(=O)O; NH(2-ClPh) = Clc1ccccc1N*; Dab = NCC[C@H](N)C(=O)O; Dap = NC[C@H](N)C(=O)O; CO = O=C([*:1])[*:2]; X4 = NC1CCCC1C(=O)*
This section presents compounds with their documented MIC E. coli NCTC9001 values.
readout.kind: MIC E. coli NCTC9001

| compound | result |
| --- | --- |
| CC(C)C[C@@H]1NC(=O)[C@@H](Cc2ccccc2)NC(=O)[C@H](CCN)NC(=O)[C@@H](NC(=O)[C@H](CCN)NC(=O)[C@@H](NC(=O)[C@H]2CC[C@H](N)CC2)[C@@H](C)O)CCNC(=O)[C@H]([C@@H](C)O)NC(=O)[C@H](CCN)NC(=O)[C@H](CCN)NC1=O [Example 17] (H-[Achc(trans-4)]T[Dab][Dab][Dab][dF]L[Dab][Dab]T; lactam 4-C) | 0.125 micrograms/mL |
| CC(C)C[C@@H]1NC(=O)[C@@H](Cc2ccccc2)NC(=O)[C@H](CCN)NC(=O)[C@@H](NC(=O)[C@H](CCN)NC(=O)[C@@H](NC(=O)[C@H](CCN)NC(=O)Nc2ccccc2Cl)C(C)O)CCNC(=O)[C@H](C(C)O)NC(=O)[C@H](CCN)NC(=O)[C@H](CCN)NC1=O (stereo partly drawn) [Example C2, CB-182, 804 sulphate salt, reference compound] ({NH(2-ClPh)-CO}-[Dab][Thr(3ξ)][Dab][Dab][Dab][dF]L[Dab][Dab][Thr(3ξ)]; lactam 4-C) | 0.25 micrograms/mL |
| CC(C)C[C@@H]1NC(=O)[C@@H](Cc2ccccc2)NC(=O)[C@H](CCN)NC(=O)[C@@H](NC(=O)[C@H](CN)NC(=O)[C@@H](NC(=O)C2CCCC2N)C(C)O)CCNC(=O)[C@H](C(C)O)NC(=O)[C@H](CCN)NC(=O)[C@H](CCN)NC1=O (stereo partly drawn) [Example 43, TFA salt] (X4-[Thr(3ξ)][Dap][Dab][Dab][dF]L[Dab][Dab][Thr(3ξ)]; lactam 3-C) | 0.125 micrograms/mL |

----------
Test system: Escherichia coli
Experiment: MIC, compound in combination with a second agent (broth microdilution)
Type: cell-based
Settings: 1:1 (wt:wt) combination with Rifampicin; MIC = total drug concentration; strain NCTC9001
Structures can show the parent of a compound that is named as a salt. Bridge positions count the residues as written; N and C are the ends. Square brackets hold non-standard residues; d marks the D form. Peptide text beside a SMILES is read from it. * marks the point of attachment. ξ: configuration not given here. ξβ3hGly(cHex) = NC(CC(=O)*)C1CCCCC1; Thr(3ξ) = CC(O)[C@H](N)C(=O)O; X11 = O=C(C(O)c1cccc(Br)c1)*; X10 = NC1(CC(=O)*)CCCCC1; Dab = NCC[C@H](N)C(=O)O; X3 = O=C([C@H]1CCCNC1)*; X14 = CC(C)(N)CCC(=O)*; Inp = O=C(O)C1CCNCC1; Ahp = NCCCCCCC(=O)O
This section presents molecules with their documented MIC E. coli NCTC9001 values.

| molecule | readout.units | qualifier.sign | MIC E. coli NCTC9001 |
| --- | --- | --- | --- |
| CC(C)C[C@@H]1NC(=O)[C@@H](Cc2ccccc2)NC(=O)[C@H](CCN)NC(=O)[C@@H](NC(=O)[C@H](CCN)NC(=O)[C@@H](NC(=O)[C@H]2CCCNC2)[C@@H](C)O)CCNC(=O)[C@H]([C@@H](C)O)NC(=O)[C@H](CCN)NC(=O)[C@H](CCN)NC1=O [Example 37, trifluoroacetate salt] (X3-T[Dab][Dab][Dab][dF]L[Dab][Dab]T; lactam 3-C) | micrograms/mL | ≤ | 0.06 |
| CC(C)C[C@@H]1NC(=O)[C@@H](Cc2ccccc2)NC(=O)[C@H](CCN)NC(=O)[C@@H](NC(=O)[C@H](CCN)NC(=O)[C@@H](NC(=O)CCCCCCN)C(C)O)CCNC(=O)[C@H](C(C)O)NC(=O)[C@H](CCN)NC(=O)[C@H](CCN)NC1=O (stereo partly shown) [Example 13, 7-Aminoheptanoyl polymyxin B nonapeptide] (H-[Ahp][Thr(3ξ)][Dab][Dab][Dab][dF]L[Dab][Dab][Thr(3ξ)]; lactam 4-C) | micrograms/mL | = | 0.5 |
| CC(C)C[C@@H]1NC(=O)[C@@H](Cc2ccccc2)NC(=O)[C@H](CCN)NC(=O)[C@@H](NC(=O)[C@H](CCN)NC(=O)[C@@H](NC(=O)C(O)c2cccc(Br)c2)C(C)O)CCNC(=O)[C@H](C(C)O)NC(=O)[C@H](CCN)NC(=O)[C@H](CCN)NC1=O (stereo partly shown) [Example 18] (X11-[Thr(3ξ)][Dab][Dab][Dab][dF]L[Dab][Dab][Thr(3ξ)]; lactam 3-C) | micrograms/mL | = | 1 |
| CC(C)C[C@@H]1NC(=O)[C@@H](Cc2ccccc2)NC(=O)[C@H](CCN)NC(=O)[C@@H](NC(=O)[C@H](CCN)NC(=O)[C@@H](NC(=O)CC(N)C2CCCCC2)C(C)O)CCNC(=O)[C@H](C(C)O)NC(=O)[C@H](CCN)NC(=O)[C@H](CCN)NC1=O (stereo partly drawn) [Example 10] ({ξβ3hGly(cHex)}-[Thr(3ξ)][Dab][Dab][Dab][dF]L[Dab][Dab][Thr(3ξ)]; lactam 3-C) | micrograms/mL | = | 0.125 |
| CC(C)C[C@@H]1NC(=O)[C@@H](Cc2ccccc2)NC(=O)[C@H](CCN)NC(=O)[C@@H](NC(=O)[C@H](CCCCN)NC(=O)[C@@H](NC(=O)C2CCNCC2)C(C)O)CCNC(=O)[C@H](C(C)O)NC(=O)[C@H](CCN)NC(=O)[C@H](CCN)NC1=O (stereo partly shown) [Example 51, TFA salt] (H-[Inp][Thr(3ξ)]K[Dab][Dab][dF]L[Dab][Dab][Thr(3ξ)]; lactam 4-C) | micrograms/mL | = | 0.5 |
| CC(C)C[C@@H]1NC(=O)[C@@H](Cc2ccccc2)NC(=O)[C@H](CCN)NC(=O)[C@@H](NC(=O)[C@H](CCN)NC(=O)[C@@H](NC(=O)CCC(C)(C)N)C(C)O)CCNC(=O)[C@H](C(C)O)NC(=O)[C@H](CCN)NC(=O)[C@H](CCN)NC1=O (stereo partly shown) [Example 21] (X14-[Thr(3ξ)][Dab][Dab][Dab][dF]L[Dab][Dab][Thr(3ξ)]; lactam 3-C) | micrograms/mL | = | 0.25 |
| CC(C)C[C@@H]1NC(=O)[C@@H](Cc2ccccc2)NC(=O)[C@H](CCN)NC(=O)[C@@H](NC(=O)[C@H](CCN)NC(=O)[C@@H](NC(=O)CC2(N)CCCCC2)C(C)O)CCNC(=O)[C@H](C(C)O)NC(=O)[C@H](CCN)NC(=O)[C@H](CCN)NC1=O (stereo partly shown) [Example 42, TFA salt] (X10-[Thr(3ξ)][Dab][Dab][Dab][dF]L[Dab][Dab][Thr(3ξ)]; lactam 3-C) | micrograms/mL | = | 0.125 |

----------
Tested on: Klebsiella pneumoniae
Assay: MIC, compound in combination with a second agent (broth microdilution)
Assay type: cell-based
Details: 1:1 (wt:wt) combination with Rifampicin; MIC is total drug concentration
Counter-ions that a name gives are not always drawn. Bridge positions count the residues as written; N and C are the ends. Square brackets hold non-standard residues; d marks the D form. Peptide text beside a SMILES is read from it. * marks the point of attachment. ξ: configuration not given here. Acetyl(3-pyridyl) = O=C(Cc1cccnc1)*; Thr(3ξ) = CC(O)[C@H](N)C(=O)O; X5 = O=C(C[C@@H]1CCCCN1)*; Dab = NCC[C@H](N)C(=O)O; X3 = O=C([C@H]1CCCNC1)*
readout.kind: MIC K. pneumoniae CCUG-59348 (micrograms/mL)

| compound | readout.kind | numeric.value |
| --- | --- | --- |
| CC(C)C[C@@H]1NC(=O)[C@@H](Cc2ccccc2)NC(=O)[C@H](CCN)NC(=O)[C@@H](NC(=O)[C@H](CCN)NC(=O)[C@@H](NC(=O)[C@H]2CCCNC2)[C@@H](C)O)CCNC(=O)[C@H]([C@@H](C)O)NC(=O)[C@H](CCN)NC(=O)[C@H](CCN)NC1=O [Example 37, trifluoroacetate salt] (X3-T[Dab][Dab][Dab][dF]L[Dab][Dab]T; lactam 3-C) | MIC K. pneumoniae CCUG-59348 | 2 |
| CC(C)C[C@@H]1NC(=O)[C@@H](Cc2ccccc2)NC(=O)[C@H](CCN)NC(=O)[C@@H](NC(=O)[C@H](CCN)NC(=O)[C@@H](NC(=O)Cc2cccnc2)C(C)O)CCNC(=O)[C@H](C(C)O)NC(=O)[C@H](CCN)NC(=O)[C@H](CCN)NC1=O (stereo partly drawn) [Example C5, reference compound] ({Acetyl(3-pyridyl)}-[Thr(3ξ)][Dab][Dab][Dab][dF]L[Dab][Dab][Thr(3ξ)]; lactam 3-C) | MIC K. pneumoniae CCUG-59348 | 4 |
| CC(C)C[C@@H]1NC(=O)[C@@H](Cc2ccccc2)NC(=O)[C@H](CCN)NC(=O)[C@@H](NC(=O)[C@H](CCN)NC(=O)[C@@H](NC(=O)C[C@@H]2CCCCN2)C(C)O)CCNC(=O)[C@H](C(C)O)NC(=O)[C@H](CCN)NC(=O)[C@H](CCN)NC1=O (stereo partly drawn) [Example 33, trifluoroacetate salt] (X5-[Thr(3ξ)][Dab][Dab][Dab][dF]L[Dab][Dab][Thr(3ξ)]; lactam 3-C) | MIC K. pneumoniae CCUG-59348 | 2 |
